Tested on: Radical scavenging activity
Assay: Antioxidant activity assessed as DPPH radical scavenging activity after 30 mins
Format: functional
pIC50: −log10 of the molar value.
measuredProperty: pIC50

Consider the reported pIC50 for these compounds:
| compound | pIC50 |
| --- | --- |
| O=C(O)[C@H]1O[C@@H](Oc2c(O)cc(O)c3c(=O)cc(-c4ccc(O)cc4)oc23)[C@H](O)[C@@H](O)[C@@H]1O | 4.17 |
| COC(=O)[C@H]1O[C@@H](Oc2c(-c3ccc(O)c(O)c3)oc3cc(O)cc(O)c3c2=O)[C@H](O)[C@@H](O)[C@@H]1O | 4.38 |
| O=C(O)[C@H]1O[C@@H](Oc2c(O)cc(O)c3c(=O)cc(-c4ccc(O)c(O)c4)oc23)[C@H](O)[C@@H](O)[C@@H]1O | 4.24 |
| COC(=O)[C@H]1O[C@@H](Oc2c(O)cc(O)c3c(=O)cc(-c4ccc(O)cc4)oc23)[C@H](O)[C@@H](O)[C@@H]1O | 4.16 |
| O=c1c(O)c(-c2ccc(O)cc2)oc2cc(O)cc(O)c12 [KAEMPFEROL] | 4.05 |
| Oc1cc(O)c2c(c1)O[C@H](c1ccc(O)c(O)c1)[C@@H](O)C2 [CIANIDANOL] | 4.31 |

a. Oc1cc(O)c2c(c1)O[C@H](c1ccc(O)c(O)c1)[C@H](O)C2 [(-)-EPICATECHIN]
b. O=C(O)[C@H]1O[C@@H](Oc2c(O)cc(O)c3c(=O)cc(-c4ccc(O)c(O)c4)oc23)[C@H](O)[C@@H](OS(=O)(=O)O)[C@@H]1O [THEOGRANDIN II]
c. O=C(O)[C@H]1O[C@@H](Oc2c(O)cc(O)c3c(=O)cc(-c4ccc(O)cc4)oc23)[C@H](O)[C@@H](OS(=O)(=O)O)[C@@H]1O [THEOGRANDIN I]
Task: Could you please order the items by pIC50, going from the lowest number to the highest? Answer with the labels in sequence, matching the requested order.
Output: c, b, a

Every entry's value here was drawn from ChEMBL document CHEMBL1147254.
